Target: PSD95 (PDZ2) (Homo sapiens, UniProt P78352)
Details: E6 peptide titrated against constant GST-PDZ; PSD95 (2)
PROPERTY LABEL: pEC50
pEC50 (log units): -log10 of the concentration in mol/L.

## Input Provide measured pEC50 on PSD95 (PDZ2) (Homo sapiens, UniProt P78352) for 20 mer peptide corresponding to the C-terminus of HPV16 E6 (PDZ ligand), biotinylated in binding assays; ends SSRTRRETQL (SEQ ID NO: 13) [HPV E6 #16] please.
## Output 5.17

====

Biological target: TIP1 (Homo sapiens, UniProt O14907)
Construct: made in house; host or cells: E. coli (DH5alpha, BL21 or JM109)
Sequence (O14907 14-116): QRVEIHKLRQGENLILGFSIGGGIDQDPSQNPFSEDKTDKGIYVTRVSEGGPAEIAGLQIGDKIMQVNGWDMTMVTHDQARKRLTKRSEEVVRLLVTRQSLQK
Test: G assay peptide titration (EC50)
Assay type: binding
Settings: E6 peptide titrated against constant GST-PDZ
PROPERTY LABEL: EC50
Please give the number followed by its unit.

## Input Determine its reported EC50: 20 mer peptide corresponding to the C-terminus of HPV16 E6 (PDZ ligand), biotinylated in binding assays; ends SSRTRRETQL (SEQ ID NO: 13) [HPV E6 #16]
## Output 750 nM
